assay: folding enthalpy; higher = less favourable; fluorescence melt of hairpins on a sequencing array, two-state fit; conditions: sodium 0.088 M
Consider the following sequences; for each one, report its folding enthalpy.
One number for each entry, in kcal/mol.

// below: answered sequences
[
  {
    "record.sequence": "GATCTAGCGTTAGATC ((((((....))))))",
    "folding enthalpy (kcal/mol)": -31.1
  },
  {
    "record.sequence": "GCGTAGCGAAAGCCCCGC (((..((....))..)))",
    "folding enthalpy (kcal/mol)": -6.69
  },
  {
    "record.sequence": "GCACTATCGAAAGATTGC (((..(((....))))))",
    "folding enthalpy (kcal/mol)": -17.7
  }
]

Can you give me folding enthalpy for all of these, one by one?
1. GTGTAGGCGAAAGCCCAC (((..(((....))))))
2. GTACGAGAAATCGTAC ((((((....))))))

-17.4
-38.2

Can you give me folding enthalpy for all of these, one by one?
1. GATGTCGGAAACGGTATC (((..((....))..)))
2. GCGCGAACGAAAGTTCGC (((..(((....))))))
3. GATCCTGTTAGGATC ((((((...))))))
4. GCAGACCCGAAAGGGTGC (((..(((....))))))
5. GAAAGCGGAAACACTTTC (((((.(....).)))))

-21.2
-6.27
-38.1
-14.2
-29.8

Can you give me folding enthalpy for all of these, one by one?
1. GTTAAGCGAAAGCTGAAC (((.(((....))).)))
2. GGTGTCGAAAGACCACC ((((((....))).)))
3. GATCTAATTGTAGATC ((((((....))))))
4. GCACGCCGAAAGGCTTGC (((.(((....))).)))
5. GATCCAAGGGTGGATC ((((((....))))))
6. GATCGGTAACCCGATC ((((((....))))))
7. GGTGGGAAACCACC (((((....)))))
8. GCTTATGGAAACATGAGC (((.(((....))).)))

-23.2
-27.6
-33
-28.7
-32
-32.7
-24.4
-33.5

---

experiment: melting temperature; fluorescence melt of hairpins on a sequencing array, two-state fit, raised by 9.35 °C to match UV melts; conditions: sodium 0.088 M
Consider the following sequences; for each one, report its Tm.
Numbers only, in °C.

[
  {
    "record.sequence": "GATCCGGCTCGGATC ((((((...))))))",
    "Tm (°C)": 59.7
  }
]

Can you give me Tm for all of these, one by one?
1. GATCGGGTAACCGATC ((((((....))))))
2. GGAACGCGAAAGCGCTCC (((.(((....))).)))
3. GCGTTTGGACGC ((((....))))
4. GCACTGCGAAAGCGATGC (((..((....))..)))
5. GTTTACGGAAACGTGAAC (((.(((....))).)))
6. GCCGATGGAAACGTTGGC (((.(.(....).).)))
7. TTGGTGAAAACCAA (((((....)))))
8. GATCCACGAAAGTGTATC (((.(((....))).)))

68.1
55.8
54.2
45
46
43
44.8
37.6

Can you give me Tm for all of these, one by one?
1. GTTTCTCGAAAGAGGAAC (((.(((....))).)))
2. GTCTGTCGAAAGACGAC (((.(((....))))))

1. 49.1
2. 51.5

---

assay: folding enthalpy; higher = less favourable; fluorescence melt of hairpins on a sequencing array, two-state fit; settings: sodium 0.088 M
Label Yes for high-side folding enthalpy (at or above -30 kcal/mol) and No for low-side folding enthalpy (below it).

Worked examples, 3 sequences total:
[
  {
    "record.sequence": "GGATGTCGAAAGACGTCC (((.(((....))).)))",
    "answer.label": "No"
  },
  {
    "record.sequence": "GATCACAGGGGTGATC ((((((....))))))",
    "answer.label": "No"
  },
  {
    "record.sequence": "GATCTAATATTAGATC ((((((....))))))",
    "answer.label": "No"
  }
]

API: above_or_equal(metric=folding enthalpy, cutoff=-30 kcal/mol) for item GATTGCCCGAAAGGGATC (((..(((....))))))
Yes

API: above_or_equal(metric=folding enthalpy, cutoff=-30 kcal/mol) for item GATCAAGACCTTGATC ((((((....))))))
No

API: above_or_equal(metric=folding enthalpy, cutoff=-30 kcal/mol) for item GATCCCCACAGGGATC ((((((....))))))
Yes

API: above_or_equal(metric=folding enthalpy, cutoff=-30 kcal/mol) for item GCCTGGCGAAAGCGACGC ((.(.((....)).).))
Yes

API: above_or_equal(metric=folding enthalpy, cutoff=-30 kcal/mol) for item CGTATCGGAAACGAGACG (((.(((....))).)))
No

API: above_or_equal(metric=folding enthalpy, cutoff=-30 kcal/mol) for item GACACGGGAAACCGTATC ((.((((....)))).))
Yes

API: above_or_equal(metric=folding enthalpy, cutoff=-30 kcal/mol) for item GTCCACGAAAGTGTGGAC ((((((....)))..)))
Yes

API: above_or_equal(metric=folding enthalpy, cutoff=-30 kcal/mol) for item GGACCTCGAAAGAGTCC (((.(((....))))))
No

API: above_or_equal(metric=folding enthalpy, cutoff=-30 kcal/mol) for item GGCAGCGAAAGCTGTGCC ((((((....)))..)))
Yes

---

assay: melting temperature; fluorescence melt of hairpins on a sequencing array, two-state fit, raised by 9.35 °C to match UV melts; conditions: sodium 0.088 M
Threshold 50 °C. Tm below it: t. Tm at it or above: f.

Worked examples, 2 sequences total:
[
  {
    "record.sequence": "GATCCGCGCTCGGATC ((((((....))))))",
    "answer.label": "f"
  },
  {
    "record.sequence": "GTGTACGGAAACGTGCAC (((.(((....))).)))",
    "answer.label": "f"
  }
]

Lab note: Tm threshold 50 °C. Does this sequence come in strictly under it? GATCAGTAGGCTGATC ((((((....))))))
f

Lab note: Tm threshold 50 °C. Does this sequence come in strictly under it? GCTGTGCGAAAGCAGAGC (((.(((....))).)))
f

Lab note: Tm threshold 50 °C. Does this sequence come in strictly under it? GCTCCGCCGAAAGGCAGC (((..(((....))))))
t

---

Consider the following sequences; for each one, report its Tm.
assay: melting temperature; fluorescence melt of hairpins on a sequencing array, two-state fit, raised by 9.35 °C to match UV melts; details: sodium 0.088 M
Answers are plain numbers, in °C.

[
  {
    "record.sequence": "GATCACACTGTGATC ((((((...))))))",
    "measurement.units": "°C",
    "recorded.value": 55.6
  },
  {
    "record.sequence": "GATCCGAGGACGGATC ((((((....))))))",
    "measurement.units": "°C",
    "recorded.value": 56.5
  },
  {
    "record.sequence": "GCGACCGAAAGGTACGC ((((((....))).)))",
    "measurement.units": "°C",
    "recorded.value": 58.1
  }
]

Can you give me Tm for all of these, one by one?
1. GACACACGAAAGTGGTC (((.(((....))))))
2. GCTGCGGCGAAAGCCAGC (((..(((....))))))
3. GCTCCGCGAAAGCGAAGC (((.(((....))).)))
4. GAAGGACGAAAGTCTTC (((.(((....))))))
5. GAGCTAGGAAACTGGCTC ((((.((....)).))))
6. GATTACGAAAGTAATC ((((((....))))))
7. GACACAGGAAACTATGTC ((((.((....)).))))
8. GCGTAGGGAAACCTGCGC (((.(((....))).)))

[49.7, 57.4, 56.4, 39.8, 51.9, 56.4, 29.9, 58.9]

Can you give me Tm for all of these, one by one?
1. GAATTTGGAAACAAATTC (((((((....)))))))
2. GGTACGGGAAACCGTGCC ((.((((....)))).))
3. GCATGAACGAAAGTTTGC (((..(((....))))))
4. GTCGCCGAAAGGCAAGAC ((((((....)))..)))
5. GATCTTGGGCAAGATC ((((((....))))))
6. GAATGACGAAAGTCGTTC (((.(((....))).)))

[52, 59.7, 33.9, 49.8, 46.7, 54.7]

Can you give me Tm for all of these, one by one?
1. GGCGCTCGAAAGAGGCC (((.(((....))))))
2. GCTGAGCGAAAGCGCCGC ((.(.((....)).).))
3. GTCTGGGGAAACCCAGGC (.(((((....))))).)

1: 57.5; 2: 50.5; 3: 55.5
